- ASSAY OVERVIEW: Cytotoxicity against HEK293 cells assessed as inhibition of cell growth incubated for 72 hrs by MTT assay
- Type: toxicity, cell-based
- CONDITION PARAMETERS: human
Entries and their measured IC50 at 72 h follow.

COMPOUND: Nc1ccn([C@@H]2O[C@H](CO)[C@@H](O)C2(F)F)c(=O)n1 [GEMCITABINE]
DISPLAY UNIT: µM
IC50 at 72 h: 0.05

COMPOUND: O=C(Nc1cccc2cccnc12)c1cnccn1
DISPLAY UNIT: µM
IC50 at 72 h: 0.15

---

- Tested on: MIA PaCa-2
- ASSAY OVERVIEW: Cytotoxicity against human MIA PaCa-2 cells assessed as inhibition of cell growth incubated for 72 hrs by MTT assay
- Type: functional, cell-based
- CONDITION PARAMETERS: MIA PaCa-2, 72 h
pIC50: −log10 of the molar value.
Kindly return satisfied if reported pIC50 is no lower than 6; return not satisfied if it is lower.

COMPOUND STRUCTURE STRING: O=C(Nc1cc(F)cc2cccnc12)c1ncccn1
CATEGORY: satisfied

COMPOUND STRUCTURE STRING: CC(C)(C)OC(=O)C1CCN(CCOc2cc(NC(=O)c3cnccn3)c3ncccc3c2)CC1
CATEGORY: not satisfied

COMPOUND STRUCTURE STRING: O=C(Nc1cccc2cccnc12)c1ccc(F)nc1
CATEGORY: not satisfied

COMPOUND STRUCTURE STRING: Cc1cnc(C(=O)Nc2cc(OCCN(C)C)cc3cccnc23)cn1
CATEGORY: not satisfied

COMPOUND STRUCTURE STRING: COc1cc(NC(=O)c2cnc(C)cn2)c2ncccc2c1
CATEGORY: satisfied

COMPOUND STRUCTURE STRING: Cc1cnc(C(=O)Nc2cccc3ncccc23)cn1
CATEGORY: not satisfied

COMPOUND STRUCTURE STRING: O=C(Nc1cc(F)cc2cccnc12)c1cnccn1
CATEGORY: satisfied

COMPOUND STRUCTURE STRING: O=C(Nc1cccc2cccnc12)c1cnccn1
CATEGORY: satisfied

COMPOUND STRUCTURE STRING: CC(C)(C)OC(=O)NCCOc1cc(NC(=O)c2ncccn2)c2ncccc2c1
CATEGORY: not satisfied

COMPOUND STRUCTURE STRING: Cc1cnc(C(=O)Nc2cccc3ccc(C)nc23)cn1
CATEGORY: not satisfied

COMPOUND STRUCTURE STRING: O=C(Nc1cc(Cl)cc2cccnc12)c1cnccn1
CATEGORY: not satisfied

COMPOUND STRUCTURE STRING: O=C(Nc1cc(OCCC2CCNCC2)cc2cccnc12)c1ncccn1
CATEGORY: not satisfied

COMPOUND STRUCTURE STRING: CN(C)Cc1ccc2cccc(NC(=O)c3cnccn3)c2n1
CATEGORY: not satisfied

COMPOUND STRUCTURE STRING: O=C(Nc1cccc2cccnc12)c1cccc(Br)n1
CATEGORY: not satisfied

COMPOUND STRUCTURE STRING: O=C(Nc1cccc2cccnc12)c1ncc2ccccc2n1
CATEGORY: not satisfied

COMPOUND STRUCTURE STRING: Cc1ccc2cccc(NC(=O)c3ncccn3)c2n1
CATEGORY: not satisfied

COMPOUND STRUCTURE STRING: O=C(Nc1cc(OCCN2CCOCC2)cc2cccnc12)c1cnccn1
CATEGORY: not satisfied

COMPOUND STRUCTURE STRING: CN(C)CCOc1cc(NC(=O)c2cnccn2)c2ncccc2c1
CATEGORY: not satisfied

COMPOUND STRUCTURE STRING: CC(C)(C)OC(=O)N1CCC(CCOc2cc(NC(=O)c3ncccn3)c3ncccc3c2)CC1
CATEGORY: not satisfied
